In this section we review reported IC50 values for a set of compounds.
target: human NaV subtype, like NaV 1.7 (Homo sapiens, UniProt Q15858); test: E-VIPR optical membrane potential assay with electrical stimulation; conditions: active against one or more sodium channels; Table 3 does not name the assay or NaV subtype; read-out: Binned Activity Data (IC50)
Sequence (Q15858 whole entry): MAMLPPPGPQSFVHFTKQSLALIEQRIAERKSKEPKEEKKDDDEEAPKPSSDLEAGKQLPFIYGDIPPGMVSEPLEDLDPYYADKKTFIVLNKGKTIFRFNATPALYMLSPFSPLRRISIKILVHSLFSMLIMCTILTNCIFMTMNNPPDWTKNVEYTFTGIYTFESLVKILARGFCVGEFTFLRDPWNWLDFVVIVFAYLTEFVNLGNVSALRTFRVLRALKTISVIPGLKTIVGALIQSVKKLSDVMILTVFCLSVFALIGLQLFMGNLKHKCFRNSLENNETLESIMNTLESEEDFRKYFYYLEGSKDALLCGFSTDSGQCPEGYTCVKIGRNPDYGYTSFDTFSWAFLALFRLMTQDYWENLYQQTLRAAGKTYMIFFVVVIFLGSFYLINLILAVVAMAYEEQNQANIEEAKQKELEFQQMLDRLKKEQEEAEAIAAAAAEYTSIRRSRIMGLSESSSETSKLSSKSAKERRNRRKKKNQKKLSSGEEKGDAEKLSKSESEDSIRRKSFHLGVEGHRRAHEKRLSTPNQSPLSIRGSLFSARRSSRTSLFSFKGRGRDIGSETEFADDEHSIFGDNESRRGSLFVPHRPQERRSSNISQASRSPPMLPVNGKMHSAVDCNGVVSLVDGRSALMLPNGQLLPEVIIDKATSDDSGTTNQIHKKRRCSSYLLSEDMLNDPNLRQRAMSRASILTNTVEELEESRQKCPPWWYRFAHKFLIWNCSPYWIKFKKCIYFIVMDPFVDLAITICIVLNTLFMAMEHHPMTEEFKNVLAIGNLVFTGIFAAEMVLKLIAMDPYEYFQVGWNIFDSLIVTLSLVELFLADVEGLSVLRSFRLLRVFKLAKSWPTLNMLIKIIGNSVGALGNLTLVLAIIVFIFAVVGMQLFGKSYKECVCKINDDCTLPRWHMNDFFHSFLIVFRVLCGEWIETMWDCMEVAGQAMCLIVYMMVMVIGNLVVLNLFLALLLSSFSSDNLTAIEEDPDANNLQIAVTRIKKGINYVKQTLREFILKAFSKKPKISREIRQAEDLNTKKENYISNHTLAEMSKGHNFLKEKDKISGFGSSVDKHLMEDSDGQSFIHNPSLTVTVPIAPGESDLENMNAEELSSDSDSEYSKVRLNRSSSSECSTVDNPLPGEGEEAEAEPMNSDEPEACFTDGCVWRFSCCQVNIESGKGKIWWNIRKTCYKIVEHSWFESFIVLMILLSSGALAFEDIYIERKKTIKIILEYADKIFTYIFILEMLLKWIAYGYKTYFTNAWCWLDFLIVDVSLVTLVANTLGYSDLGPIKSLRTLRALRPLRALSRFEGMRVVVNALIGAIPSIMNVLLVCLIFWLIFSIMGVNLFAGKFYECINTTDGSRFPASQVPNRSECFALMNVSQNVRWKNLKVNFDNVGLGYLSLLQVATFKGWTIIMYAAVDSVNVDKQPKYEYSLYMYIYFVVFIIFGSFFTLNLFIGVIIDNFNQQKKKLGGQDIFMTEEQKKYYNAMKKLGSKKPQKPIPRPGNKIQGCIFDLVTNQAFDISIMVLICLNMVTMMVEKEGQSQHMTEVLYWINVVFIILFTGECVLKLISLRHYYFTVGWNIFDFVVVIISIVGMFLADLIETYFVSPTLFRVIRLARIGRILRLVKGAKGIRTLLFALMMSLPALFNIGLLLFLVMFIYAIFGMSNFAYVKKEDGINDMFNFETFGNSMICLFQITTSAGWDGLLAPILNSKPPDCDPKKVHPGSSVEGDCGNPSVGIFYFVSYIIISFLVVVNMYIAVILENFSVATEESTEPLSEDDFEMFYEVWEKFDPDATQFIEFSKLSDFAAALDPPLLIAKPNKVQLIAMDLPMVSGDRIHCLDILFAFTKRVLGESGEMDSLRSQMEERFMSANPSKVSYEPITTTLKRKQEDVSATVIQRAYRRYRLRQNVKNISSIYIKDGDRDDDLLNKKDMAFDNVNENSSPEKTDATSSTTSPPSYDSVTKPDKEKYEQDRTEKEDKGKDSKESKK

Cc1cc(C(=O)N2CCC3(CC2)c2ccc(C(=O)C(F)(F)F)n2CCN3C)ccc1O    ≤ 2000 nM
CN1CCn2c(C(=O)C(F)(F)F)ccc2C12CCN(C(=O)c1ccc(-c3ccccc3)cc1)CC2    ≤ 2000 nM
CN1CCn2c(C(F)(F)F)ccc2C12CCN(C(=O)c1cccnc1N1CCC(O)C1)CC2 (stereo not shown)    > 5000 nM
COc1cc(C(=O)N2CC[C@@]3(C[C@@H]2C)c2ccc(C(F)(F)F)n2CCN3C)ccc1OC(C)C    > 5000 nM
CC(C)COc1ccc(C(=O)N2CCC3(CC2)c2ccc(C(=O)C(F)(F)F)n2CCN3C)cc1    ≤ 2000 nM
CC(=O)c1ccc2n1CC(C)(C)NC21CCN(C(=O)c2ccc(OC(C)C)c(Cl)c2)CC1    ≤ 2000 nM

Looking up `COc1cc(C(=O)N2CCC3(CC2)c2ccc(C(C)=O)n2CCN3C)ccc1C(C)(C)C` , I found its IC50 recorded as ≤ 2000 nM

Looking up `CCCOc1cc(C(=O)N2CCC3(CC2)c2ccc(Cl)n2CCN3C)ccc1OC` , I found its IC50 recorded as 2000 to 5000 nM

Looking up `CN1CCn2c(C(F)(F)F)ccc2C12CCN(C(=O)c1cccnc1N1CCCCC1)CC2` , I found its IC50 recorded as ≤ 2000 nM

Looking up `CN1CCn2c(Cl)ccc2C12CCN(C(=O)c1ccc(OCC3CC3)cc1)CC2` , I found its IC50 recorded as 2000 to 5000 nM

Looking up `CN1CCn2c(C(=O)C(F)(F)F)ccc2C12CCN(C(=O)c1ccc(COc3ccccc3)cc1)CC2` , I found its IC50 recorded as ≤ 2000 nM

Looking up `COCCN1CCn2c(C(F)(F)F)ccc2C12CCN(C(=O)c1ccccc1OC(F)(F)F)CC2` , I found its IC50 recorded as ≤ 2000 nM

Looking up `Cc1cc(S(=O)(=O)C(C)C)ccc1C(=O)N1CCC2(CC1)c1ccc(C(F)(F)F)n1CCN2C` , I found its IC50 recorded as ≤ 2000 nM

Looking up `CC1(C)Cn2c(C(=O)C(F)(F)F)ccc2C2(CCN(C(=O)c3ccc(O)c(C(F)(F)F)c3)CC2)N1` , I found its IC50 recorded as ≤ 2000 nM
